target-or-test-system: CDK9/CycT1 (Homo sapiens, UniProt P50750)
Construct: Recombinant full-length His-tagged human CDK9 and CycT1; His
Sequence (P50750 whole entry): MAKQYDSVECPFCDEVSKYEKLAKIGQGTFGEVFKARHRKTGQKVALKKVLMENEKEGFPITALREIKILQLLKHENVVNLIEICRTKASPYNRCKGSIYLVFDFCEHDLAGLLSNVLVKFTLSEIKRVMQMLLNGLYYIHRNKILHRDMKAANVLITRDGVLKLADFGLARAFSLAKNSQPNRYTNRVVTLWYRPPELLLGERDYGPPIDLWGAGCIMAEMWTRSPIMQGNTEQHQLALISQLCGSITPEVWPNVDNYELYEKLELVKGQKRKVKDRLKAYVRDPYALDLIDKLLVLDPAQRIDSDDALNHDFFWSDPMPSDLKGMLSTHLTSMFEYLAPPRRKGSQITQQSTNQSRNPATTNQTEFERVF
Sequence (O60563 whole entry partner): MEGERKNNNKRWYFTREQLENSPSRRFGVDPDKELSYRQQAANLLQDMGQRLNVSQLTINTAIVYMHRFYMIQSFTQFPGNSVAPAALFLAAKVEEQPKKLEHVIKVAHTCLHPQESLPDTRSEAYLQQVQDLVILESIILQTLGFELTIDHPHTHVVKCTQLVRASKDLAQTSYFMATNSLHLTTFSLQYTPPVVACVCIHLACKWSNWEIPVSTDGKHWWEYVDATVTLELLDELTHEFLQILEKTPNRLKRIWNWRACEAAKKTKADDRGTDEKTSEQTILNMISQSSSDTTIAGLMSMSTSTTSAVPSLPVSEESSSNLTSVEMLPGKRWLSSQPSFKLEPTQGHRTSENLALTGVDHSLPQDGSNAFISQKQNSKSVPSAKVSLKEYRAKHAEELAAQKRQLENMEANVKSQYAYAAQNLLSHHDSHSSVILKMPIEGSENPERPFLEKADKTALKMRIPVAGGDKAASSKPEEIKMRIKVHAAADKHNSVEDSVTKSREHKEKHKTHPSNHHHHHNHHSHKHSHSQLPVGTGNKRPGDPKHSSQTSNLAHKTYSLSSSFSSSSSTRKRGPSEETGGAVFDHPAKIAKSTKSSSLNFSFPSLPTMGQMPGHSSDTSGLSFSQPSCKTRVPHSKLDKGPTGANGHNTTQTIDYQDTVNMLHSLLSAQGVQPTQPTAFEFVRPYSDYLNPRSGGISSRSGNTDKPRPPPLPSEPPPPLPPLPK
measurement-protocol: CDK9/CycT1 kinase assay (TR-FRET)
condition-parameters: Method 1, 10 μM ATP
measure-name: IC50 (nM)

Recorded results for 5 compounds are shown here.
{"compound-structure-string": "CC(C)CCOc1cc(F)ccc1-c1ncnc(Nc2cccc(CS(C)(=O)=O)c2)n1", "IC50 / nM": 16}
{"compound-structure-string": "CS(=O)(=O)Cc1cccc(Nc2ncnc(-c3ccc(F)cc3OCc3cccc(C(F)(F)F)c3)n2)c1", "IC50 / nM": 4}
{"compound-structure-string": "COc1cc(F)ccc1-c1ncnc(Nc2cccc(CS(=O)(=O)C3CCCC3)c2)n1", "IC50 / nM": 17}
{"compound-structure-string": "CS(=O)(=O)Cc1cccc(Nc2ncnc(-c3ccc(F)cc3OCc3cccc(F)c3F)n2)c1", "IC50 / nM": 21}
{"compound-structure-string": "COc1cc(F)ccc1-c1ncnc(Nc2cccc(CS(=O)(=O)C3CC3)c2)n1", "IC50 / nM": 14}

[a] CS(=O)(=O)Cc1cccc(Nc2ncnc(-c3cccc4c3OCC4)n2)c1
[b] COc1cc(F)ccc1-c1ncnc(Nc2cccc(CS(C)(=O)=O)c2)n1
[c] Cc1cccc(COc2cc(F)ccc2-c2ncnc(Nc3cccc(CS(C)(=O)=O)c3)n2)c1
Q. List these items ordered by IC50, big to small. Please write the labels in the order that was asked for.
A. b, a, c
(b: 24 nM, a: 15 nM, c: 5 nM)
